- experimentalTarget: T1, cynomolgus monkey DLL3 extracellular domain (ECD) with C-terminal 8xHis tag and Avi tag (cynomolgus monkey, UniProt A0A2K5WSR1 27-490)
- T1 construct: extracellular domain; Expressed in Expi293, purified by IMAC and SEC; also called cynoDLL3; cyno DLL3; not shown: Avi tag
- T1 sequence: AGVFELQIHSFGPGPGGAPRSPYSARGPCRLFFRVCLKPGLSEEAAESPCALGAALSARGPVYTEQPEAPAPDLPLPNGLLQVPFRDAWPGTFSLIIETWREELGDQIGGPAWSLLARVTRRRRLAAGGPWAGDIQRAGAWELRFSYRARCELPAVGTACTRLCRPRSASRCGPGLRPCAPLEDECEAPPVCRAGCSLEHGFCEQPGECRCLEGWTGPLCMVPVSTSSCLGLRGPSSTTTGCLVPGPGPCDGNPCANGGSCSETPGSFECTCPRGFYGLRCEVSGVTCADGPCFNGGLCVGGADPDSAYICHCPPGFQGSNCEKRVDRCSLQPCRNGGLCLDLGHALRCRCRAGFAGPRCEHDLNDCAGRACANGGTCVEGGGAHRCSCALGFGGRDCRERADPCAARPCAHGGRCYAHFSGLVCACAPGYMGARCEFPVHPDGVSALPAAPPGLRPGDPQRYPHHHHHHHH
- protocolNotes: SPR (Biacore), 37 C; scFv-Fc captured on chip, cyno DLL3 ECD in solution; 1:1 Langmuir fit
observedProperty: Kd
Answer as a quantity: numeral, then unit.

Field: example entries. Status: answers known.
1. 26C8 scFv-Fc fusion (Fc fusion, not shown: a dimerising Fc or GST, scFv-Fc expressed in Expi293) scFv: QVQLQESGPGLVKPSETLSLTCTVSDNSISNYYWSWIRQPPGKGLEWIAYIYYSGTTNYNPSLKSRVTISLDTSKNQFSLQLSSVTAADAAVYYCARVFHWGFAFDIWGQGTMVTVSSGGGGSGGGGSGGGGSGGGGSEIVLTQSPGTLSLSPGERATLSCRASQRVSNTYLAWYQQNPGQAPRLLIYGASSRATGIPDRFSGSGSGTDFTLTISRLEPEDFAVYYCQQYGTSPLTFGGGTKVEIK | 4.51 nM
2. 8E11 scFv-Fc fusion (Fc fusion, not shown: a dimerising Fc or GST, scFv-Fc expressed in Expi293) scFv: QVQLQESGPGLVKPSETLSLTCTVSGDSISNYYWTWIRQPPGKGLEWIGYIYYSGTTNSNPSLKSRVTVSLDTSKSQFSLNLSSVTAADTAVYYCARVFNRGFAFDIWGQGTMVTVSSGGGGSGGGGSGGGGSGGGGSEIVLTQSPGTLSLSPGERATLSCRASQRISNTYLAWYQQKPGQAPRLLIYGASSRATGIPDRFSGSGSGTDFTLTISRLEPEDFAAYYCQQYDTSPLTFGGGTKVEIK | 10.5 nM

Moving on to the next binder.
Given 9D3 scFv-Fc fusion (Fc fusion, not shown: a dimerising Fc or GST, scFv-Fc expressed in Expi293) scFv: QVQLQESGPGLVKPSETLSLTCTVSDDSISNYYWSWIRQPPGKGLEWIGYIFYSGTTNHNPSLKSRLTISLDKAKNQFSLRLSSVTAADTAVYYCARVFNWGFAFDIWGQGTMVTVSSGGGGSGGGGSGGGGSGGGGSEIVLTQSPGTLSLSPGERATLSCRASQRISRTYLAWYQQKPGQAPRLLIYGASSRATGIPDRFTGSGSGTDFTLTISRLEPEDFAVYYCQQYGTSPLTFGGGTKVEIN , respond with its Kd. 21.8 nM
